test: Area under the curve determination of plasma levels in rats (rrAUC); assay type: in vivo; conditions: rat, oral 10 mg/kg, plasma 0.5-6 h post-dosing; read-out: RR AUC
ENDPOINT LABEL: AUC (µM·h)

Some compounds with recorded AUC:
1) COc1ccc2c(c1)C(=O)N(C[C@@]1(C#Cc3ccc(C(N)C(F)(F)F)cc3)NC(=O)NC1=O)C2 (stereo partly shown); 2.6
2) COc1ccc2c(c1F)C(=O)N(C[C@@]1(C#Cc3ccc(C4(C(N)=O)CCN(C)CC4)cc3)NC(=O)NC1=O)C2; 0.016

A = COc1ccc2c(c1F)C(=O)N(C[C@@]1(C#Cc3ccc(N4C(=O)CCC4C(=O)NC4CC4)cc3)NC(=O)NC1=O)C2 (stereo partly shown)
B = COc1ccc2c(c1)C(=O)N(C[C@@]1(C#Cc3ccc(C(O)C4CCN(C)CC4)cc3)NC(=O)NC1=O)C2 (stereo partly shown)
C = COc1ccc2c(c1F)C(=O)N(C[C@@]1(C#Cc3ccc(C4(O)CCNCC4)cc3)NC(=O)NC1=O)C2
D = COc1ccc2c(c1F)C(=O)N(C[C@@]1(C#Cc3ccc4c(c3)CCC43NC(=O)NC3=O)NC(=O)NC1=O)C2 (stereo partly shown)
E = COc1ccc2c(c1)C(=O)N(C[C@@]1(C#Cc3ccc(-c4cc(N)n(C)n4)cc3)NC(=O)NC1=O)C2
*Q* Sort these compounds on AUC so the largest reading comes first. Answer with the labels in sequence, matching the requested order.
*A* D, E, A, C, B
(D: 3.46 µM·h, E: 0.357 µM·h, A: 0.213 µM·h, C: 0.041 µM·h, B: 0.011 µM·h)
